measurement protocol: gradient 5% acetonitrile 3 min, to 50% in 2 min, to 85% in 15 min, held 3 min, 100 µL/min
recorded conditions: column: Zorbax Extend-C18 2.1 x 50 mm; eluents: water / acetonitrile, 0.1% formic acid
measured quantity: RP-LC retention time (s)
All answers are understood in s, so give the number only.

Bench note: what RP-LC retention time did CCc1ccc(CN2C(=O)C3(CCOCC3)CC2c2nnnn2C(C)(C)C)cc1 (centres undefined) show?
862

For CCC1CN(C(=O)N2CCC(C(=O)NCCCOC(C)C)CC2)c2cc(C)ccc2O1 (centres undefined) , what is its reported RP-LC retention time?
873

What value of RP-LC retention time has been reported for the following compound? COc1cccc(CNC(=O)C2CCN(Cc3cn(C)c4ccc(Cl)cc34)CC2)c1
700

Reported RP-LC retention time for COc1ccc(NC(=O)NCC23CCCC=C2NC(=O)CC3)cc1 (centres undefined) : what is it?
593

Record request: RP-LC retention time value, item O=C(c1ccc(F)c(F)c1)N1CCN(C(=O)c2nnn3c2COC(c2ccc(Cl)cc2)C3)CC1 (centres undefined)
937

Endpoint output: RP-LC retention time of Cc1ccc(Cn2c(=O)n(CCNC(=O)Cc3ccsc3)c3ncccc32)cc1 . Value?
824

# get_value(readout='RP-LC retention time', item= O=C(c1cccc(F)c1)N1CCN(C(=O)c2nnn3c2COC(c2ccc(Cl)cc2)C3)CC1 (centres undefined) )
931

State the recorded RP-LC retention time for this entry: COc1cccc(NC(=O)C2CCCN(S(=O)(=O)c3c[nH]c(C(=O)N4CCCC4)c3)C2)c1 (centres undefined)
765

Value lookup for RP-LC retention time; key = CCC1Oc2ccc(S(=O)(=O)N3CCC(C(=O)NC4CCCCC4)CC3)cc2NC1=O (centres undefined)
838

Which RP-LC retention time value is on record for CCC(=O)Nc1cccn2nc(CC)nc12 ?
657

Report RP-LC retention time for CC(C)NC(=O)N1CCCC(c2cccc(C(=O)NCCN3CCOCC3)c2)C1 (centres undefined) please.
591

Please give the measured RP-LC retention time for this compound: CC(C)(C)c1ccccc1OCC(=O)Nc1nc(-c2ccccc2)cs1
1320

I have this compound here, CCOC(=O)C1=C(C)NC2=C(C(=O)C(C(=O)OC)C(C)C2)C1c1ccc(OC)cc1 (centres undefined) , and I need its recorded RP-LC retention time.
860

Could you share which RP-LC retention time value was measured for COC(=O)C1=CN(c2ccc(F)cc2C)c2ccc(F)cc2S1(=O)=O ?
920

So what's the measured RP-LC retention time for this one? COCCCn1c(C)c(C)c(S(=O)(=O)c2ccccc2)c1NC(=O)C1CCCO1 (centres undefined)
824

Which measured RP-LC retention time value corresponds to CC1(C(=O)NCc2ccccc2)Cn2cnc(C(=O)N3CCc4ccccc43)c2C(=O)N1C1CC1 (centres undefined) ?
720

Using the record for COc1ccc(-c2noc(Cc3nnc(-c4ccc(Cl)cc4)o3)n2)cc1F , report its RP-LC retention time.
1060

Report RP-LC retention time for Cc1cc(NC(=O)C2CCN(C(=O)c3cnn(-c4ccccc4)n3)CC2)no1 please.
847

Look at this compound and give its reported RP-LC retention time. CCc1noc(NC(C)=O)c1-c1ccc(OC)c(S(=O)(=O)N2CCN(c3ccccc3)CC2)c1
895

Value source: the METLIN SMRT retention time set (Domingo-Almenara et al. 2019)
